B1: TSN (parent)
chain: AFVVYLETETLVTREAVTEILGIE

- Variants of: B1
- assay-text: protein stability index of a GFP-peptide fusion (GPS, HEK-293T) (PSI 1-6); higher = more stable;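 note: lentivirally expressed fusions sorted by FACS into six bins by GFP to DsRed ratio, PSI derived from sequencing read proportions per bin multiplied by bin number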
- reported-conditions: c terminus: a fixed tail appended
quantity-name: protein stability index

• V4W = 2.92
• G22Y = 3.71
• T13K = 1.63
• E7I = 3.57
• E24I = 3.19
• E15V = 3.11
• V4Y = 2.61
• T13M = 3.48
• I20R = 3.48
• E9S = 2.9
• R14M = 4.2
• V4C = 2.2
• L11W = 2.15
• T10H = 2.83
• V3G = 1.67
• L11V = 2.74
• T10A = 1.65
• I20H = 2.68
• V17E = 1.4
• I20F = 3.74
• E9L = 1.46
• G22F = 3.47
